Test system: 898857-211-R-J1-PDC complex spheroids, growth % test/control;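 also: spheroids exposed to compound for seven days before readout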
Method notes: Anticancer human tumor 898857-211-R-J1-PDC patient-derived melanoma cell line growth inhibition [RAS]
Cond: curve of first compound; second compound 0.0316 µM
Description: RAS pathway inhibitors in Combinations in Complex Spheroids A high-throughput screen of multi-cell type tumor spheroids was designed to identify active combinations of RAS pathway inhibitors and targeted small molecules. Complex spheroids include a stromal component modeled by human endothelial cells (HUVEC) and fibroblasts modeled by human mesenchymal stem cells (MSCs). […] Compounds. […] If the clinical Cmax for an agent had not been determined, the highest concentration tested was 10 microM. […]
pIC50: −log10 of the molar value.
The molecules listed here are annotated with their pIC50.

Q: Please state recorded pIC50 (tested on 898857-211-R-J1-PDC complex spheroids, growth % test/control) of NC1c2ccccc2OC12CCN(c1cnc3c(N4CCCc5ncccc54)n[nH]c3n1)CC2 (stereo not drawn) + C#Cc1c(F)ccc2cc(O)cc(-c3ncc4c(N5CC6CCC(C5)N6)nc(OCC56CCCN5CC(F)C6)nc4c3F)c12;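 also: spheroids exposed to compound for seven days before readout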
Result: < 5.00

Q: Please state recorded pIC50 (tested on 898857-211-R-J1-PDC complex spheroids, growth % test/control) of CC(C)NCC(C(=O)N1CCN(c2ncnc3c2C(C)CC3O)CC1)c1ccc(Cl)cc1 (stereo not drawn) + C=CC(=O)N1CCN(c2nc(OCC3CCCN3C)nc3c(F)c(-c4nc(N)cc(C)c4C(F)(F)F)c(Cl)cc23)C(C)C1;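 also: spheroids exposed to compound for seven days before readout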
Result: < 5.00

Q: Please state recorded pIC50 (tested on 898857-211-R-J1-PDC complex spheroids, growth % test/control) of C=CC(=O)Nc1cc(Nc2nccc(-c3cn(C)c4ccccc34)n2)c(OC)cc1N(C)CCN(C)C + C=CC(=O)N1CCN(c2nc(OCC3CCCN3C)nc3c(F)c(-c4nc(N)cc(C)c4C(F)(F)F)c(Cl)cc23)C(C)C1;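 also: spheroids exposed to compound for seven days before readout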
Result: < 6.00
